# pKd per record follows
Target: T1, FOXN1 1-614 (human, UniProt O15353 1-614)
T1 sequence: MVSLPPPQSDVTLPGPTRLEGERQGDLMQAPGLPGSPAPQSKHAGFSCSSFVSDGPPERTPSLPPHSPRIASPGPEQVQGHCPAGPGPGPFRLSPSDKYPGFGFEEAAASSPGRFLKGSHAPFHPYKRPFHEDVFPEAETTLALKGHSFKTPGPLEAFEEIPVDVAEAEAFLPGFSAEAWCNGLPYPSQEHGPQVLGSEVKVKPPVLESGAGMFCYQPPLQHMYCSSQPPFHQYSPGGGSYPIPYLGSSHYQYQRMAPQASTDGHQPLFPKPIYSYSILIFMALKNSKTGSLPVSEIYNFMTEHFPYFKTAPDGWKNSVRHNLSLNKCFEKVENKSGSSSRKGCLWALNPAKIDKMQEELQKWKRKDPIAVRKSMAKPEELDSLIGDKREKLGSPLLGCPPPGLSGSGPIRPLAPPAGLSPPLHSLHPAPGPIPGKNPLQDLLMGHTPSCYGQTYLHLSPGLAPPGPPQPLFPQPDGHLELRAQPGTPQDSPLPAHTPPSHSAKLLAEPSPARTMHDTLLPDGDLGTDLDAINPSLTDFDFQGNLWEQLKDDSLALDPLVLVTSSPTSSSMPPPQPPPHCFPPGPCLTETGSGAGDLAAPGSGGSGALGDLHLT
Assay: fluorescence polarization; EMSA: 50 mM Tris-HCl pH 7.5, 25 mM NaCl, 0.5 mM EDTA, 0.1% Tween 20, 2 mM DTT, 5% glycerol, 30 min room temperature; FP: 10 mM HEPES pH 7.5, 50 mM NaCl, 1 mM TCEP, 10 nM probe
Details: protein: recombinant; tags: His tag (pNIC28-Bsa4), cleaved with TEV; label: 3' FITC on strand 1; blunt
pKd: −log10 of the molar value.

BINDER | pKd
tandem FHL FP probe (dsDNA) DNA 1: GCAGCAGACGCAACAGAGCGAGACGCCAGGG DNA 2: CCCTGGCGTCTCGCTCTGTTGCGTCTGCTGC | 7.42
tandem FKH FP probe (dsDNA) DNA 1: GCAGCATAAACAACAGAGCGATAAACCAGGG DNA 2: CCCTGGTTTATCGCTCTGTTGTTTATGCTGC | 7.07
